Data origin: patent US10160744B2

Counter-ions that a name gives are not always drawn.
Values of Ki reported for h-5-HT6 receptor (Homo sapiens) appear below.

Using known records, supply Ki for O=S(=O)(c1cccc(F)c1)c1cnc2c(N3CC[C@H](O)C3)cccc2c1 < 10 nM

Provide only the value of recorded Ki for COc1ccc(C)cc1S(=O)(=O)c1cnc2c(N3CC(O)C3)cccc2c1 10 to 100 nM

Tell us which Ki value is on record for O=S(=O)(c1ccccc1)c1cnc2c(N3C[C@@H](O)[C@@H](O)C3)cccc2c1 < 10 nM

Give the reported Ki for this molecule. O=S(=O)(c1ccccc1)c1cnc2c(N3CCC(O)CC3)cccc2c1 < 10 nM

Fill in Ki for record NC(=O)C1CCCN(c2cccc3cc(S(=O)(=O)c4cccc(C(F)(F)F)c4)cnc23)C1 (stereo not shown) < 10 nM

Output Ki of O=S(=O)(c1cccc(C(F)(F)F)c1)c1cnc2c(N3CCC[C@@H](O)C3)cccc2c1 < 10 nM

Using known records, supply Ki for O=S(=O)(c1cccc(N2CCC(O)CC2)c1)c1cnc2c(F)cccc2c1 10 to 100 nM

Fill in Ki for record O=S(=O)(c1ccccc1)c1cnc2c(N3CCC[C@H](O)C3)cccc2c1 10 to 100 nM

In one line, give reported Ki of the entry O=C(O)C1CCN(c2cccc3cc(S(=O)(=O)c4cccc(C(F)(F)F)c4)cnc23)CC1 . < 10 nM

Supply measured Ki of O=S(=O)(c1cccc(C(F)(F)F)c1)c1cnc2c(N3CCC[C@H](O)C3)cccc2c1 [Example 4, Hydrochloride] in your reply. < 10 nM

###

- protocol_notes: Metabolic stability in human liver microsomes (microsomal clearance)
- Type: in vitro ADME
- experimental_parameters: pH 7.4; human liver microsomes 0.25 mg protein/mL, 0.5 μM compound, NADPH, 37° C.; read-out: mClint
recorded_metric: microsomal CLint at 0.5 μM

Name the recorded microsomal CLint at 0.5 μM of the compound listed here: O=S(=O)(c1ccccc1)c1cnc2c(N3CCC(O)CC3)cccc2c1 < 30 µL/min/mg

Note down microsomal CLint at 0.5 μM recorded for O=S(=O)(c1cccc(C(F)(F)F)c1)c1cnc2c(N3CCC(O)CC3)cccc2c1 30 to 60 µL/min/mg

Query microsomal CLint at 0.5 μM for O=C(O)C1CCN(c2cccc3cc(S(=O)(=O)c4cccc(OC(F)(F)F)c4)cnc23)CC1 30 to 60 µL/min/mg

Report measured microsomal CLint at 0.5 μM; entry is O=C(O)C1CCN(c2cccc3cc(S(=O)(=O)c4cccc(N5CCNCC5)c4)cnc23)CC1 < 30 µL/min/mg
